target: Tubulin (Bos taurus); test: Inhibition of tubulin polymerization of purified bovine brain tubulin
Overview of recorded pIC50 for various molecules
pIC50 is a log-scale quantity: -log10 of the concentration expressed in molar.

Solved cases below.
[
  {
    "Molecule": "C=CC[C@H](CC/C(C)=C/C=C/CC/C=C\\[C@@H]1CSC([C@@H]2C[C@@H]2C)=N1)OC",
    "pIC50": 6.17
  },
  {
    "Molecule": "C=CC[C@@H](CC/C(C)=C/C=C/CC/C=C\\[C@H]1CSC([C@@H]2C[C@@H]2C)=N1)OC",
    "pIC50": 5.26
  },
  {
    "Molecule": "C=CC[C@@H](CC/C(C)=C/C=C/CC/C=C\\c1csc([C@@H]2C[C@@H]2C)n1)OC",
    "pIC50": 6.13
  }
]

### Prompt Query for Tubulin (Bos taurus): what pIC50 does the record show for C=CCC1(CC/C(C)=C/C=C/CC/C=C\[C@@H]2CSC([C@@H]3C[C@@H]3C)=N2)OCCO1 ?
### Response 6.11

### Prompt Query for Tubulin (Bos taurus): what pIC50 does the record show for CCC[C@@H](CC/C(C)=C/C=C/CCCCC1CSC([C@@H]2C[C@@H]2C)=N1)OC (stereo not given in full) ?
### Response 5.34

### Prompt Query for Tubulin (Bos taurus): what pIC50 does the record show for C=CC[C@@H](CC/C(C)=C/C=C/CC/C=C\[C@@H]1CSC([C@@H]2C[C@@H]2C)=N1)OCC(F)(F)C(F)(F)C(F)(F)F ?
### Response 5.27

### Prompt Query for Tubulin (Bos taurus): what pIC50 does the record show for C=CC[C@@H](CC/C(C)=C/C=C/CC/C=C\[C@H](CSC)NC(C)=O)OC ?
### Response 5.48

Sourced from ChEMBL document CHEMBL1135577
